Molecular target: Potassium voltage-gated channel subfamily KQT member 1 (Homo sapiens) (UniProt P51787)
Sequence (P51787 whole entry, looked up): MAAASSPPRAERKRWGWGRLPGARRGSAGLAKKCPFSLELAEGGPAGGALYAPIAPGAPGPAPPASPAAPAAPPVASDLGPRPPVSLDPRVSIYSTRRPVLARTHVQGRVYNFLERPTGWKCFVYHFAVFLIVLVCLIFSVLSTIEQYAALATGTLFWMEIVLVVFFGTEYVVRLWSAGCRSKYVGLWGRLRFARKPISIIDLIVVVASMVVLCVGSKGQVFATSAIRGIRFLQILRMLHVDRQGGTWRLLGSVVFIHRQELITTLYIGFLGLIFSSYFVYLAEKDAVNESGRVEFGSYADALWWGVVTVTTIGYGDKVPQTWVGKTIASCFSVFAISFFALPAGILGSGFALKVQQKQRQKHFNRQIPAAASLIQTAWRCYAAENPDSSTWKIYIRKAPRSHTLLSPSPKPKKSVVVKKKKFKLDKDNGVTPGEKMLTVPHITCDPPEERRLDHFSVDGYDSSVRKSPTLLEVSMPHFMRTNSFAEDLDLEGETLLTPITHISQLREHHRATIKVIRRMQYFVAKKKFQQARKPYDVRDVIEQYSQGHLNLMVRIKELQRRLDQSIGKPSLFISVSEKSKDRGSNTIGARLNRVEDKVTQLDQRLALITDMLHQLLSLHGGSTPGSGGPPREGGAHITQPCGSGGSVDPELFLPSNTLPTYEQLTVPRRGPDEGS
Assay: KCNQ1 potassium channel potentiators, confirmation, FluxOR thallium flux, CHO cells, duplicates (AID 493007);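 on Outcome: cells depolarized by a potassium plus thallium sulfate stimulus after compound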
Conditions: KCNQ1 cell line, FluxOR thallium flux fluorescence, at 10 µM, % of reference activator effect, buffer zero
Activity calls are given as the source filed them.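 How the source made its calls: active means potentiation averaged over duplicate wells exceeding buffer-only control mean by more than 3 SD; inactive means the rest.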
Outcome codes: yes for active, no for inactive

compound=c1ccc(CNc2nc3ccccc3[nH]2)cc1 category=no
compound="CC12CCC(C(=O)N(CSC(=S)N/N=C\\c3ccccc3)C1=O)C2(C)C (stereo not drawn)" category=yes
compound=Cc1cccc(C(=O)NC(=S)N2CCc3ccccc3C2)c1 category=yes
compound=Cc1ccc(C)c(NC(=S)NC(=O)c2cncc(Br)c2)c1 category=yes
compound=CN(C)CCNc1ncnc2c1sc1nc(N3CCOCC3)c3c(c12)CC(C)(C)SC3 category=no
compound=O=c1[nH]cc(N=Cc2cc(Cl)cc(Cl)c2O)c(=O)[nH]1 category=no
compound=CC(=O)c1cccc(NC(=S)NC(=O)c2ccc(Cl)cc2)c1 category=no
compound=CC(C)(C)C(=O)NC(=S)NNC(=O)c1ccc(-c2ccccc2)cc1 category=yes
compound="N#CC(c1cccc(Cl)c1)c1ccc2c(C(F)(F)F)cc(C(F)(F)F)nc2n1 (stereo not drawn)" category=yes
compound=CCCc1cc(=O)n2[nH]c(C)c(-c3ccc(Cl)cc3)c2n1 category=yes
compound="CCOC(=O)C(Sc1nnc(-c2ccncc2)o1)C(C)=O (stereo not drawn)" category=no
compound=O=C(c1ccc(COc2ccc(Cl)cc2)o1)N1CCN(Cc2ccc3c(c2)OCO3)CC1 category=yes
compound=CCCOc1ccc(C(=O)NNC(=S)NC(=O)c2ccccc2)cc1 category=yes
compound=O=C(c1ccc(Cl)cc1)c1c[nH]c(C(=O)C(Cl)(Cl)Cl)c1 category=no
compound="O=C(NN1C(=O)C2C(c3ccccc3)C=CC(c3ccccc3)C2C1=O)c1ccncc1 (stereo not drawn)" category=yes
compound="Cc1ccc(C(=O)C2=C(O)C(=O)N(CCCN3CCOCC3)C23C(=O)N(C)c2ccccc23)o1 (stereo not drawn)" category=no
compound=O=C(Oc1c(-c2ccco2)oc2ccccc2c1=O)c1cccnc1 category=yes
compound="COc1ccc(C2SCC(=O)N2c2nc3ccccc3s2)cc1 (stereo not drawn)" category=no
compound=O=C(NC(=S)N1CCCCCC1)c1ccccc1Cl category=yes
compound=Cc1cc(S(=O)(=O)N2CCOCC2)ccc1OCC(=O)Nc1ccc(Br)cc1F category=no
compound=c1csc(-c2csc3ncnc(NCCCN4CCOCC4)c23)c1 category=no
compound="CC1(c2ccc(OC(F)F)cc2)NC(=O)N(CC(=O)Nc2ccc3c(c2)OCO3)C1=O (stereo not drawn)" category=no
compound="C=CCNC(=S)Nc1sc2c(c1C(=O)OCC)CC(C)(CC)OC2 (stereo not drawn)" category=yes

###

# Lookup of reported inhibition keyed by entry
Target: Potassium voltage-gated channel subfamily KQT member 2 (Rattus norvegicus) (UniProt O88943)
Sequence (O88943 whole entry, looked up): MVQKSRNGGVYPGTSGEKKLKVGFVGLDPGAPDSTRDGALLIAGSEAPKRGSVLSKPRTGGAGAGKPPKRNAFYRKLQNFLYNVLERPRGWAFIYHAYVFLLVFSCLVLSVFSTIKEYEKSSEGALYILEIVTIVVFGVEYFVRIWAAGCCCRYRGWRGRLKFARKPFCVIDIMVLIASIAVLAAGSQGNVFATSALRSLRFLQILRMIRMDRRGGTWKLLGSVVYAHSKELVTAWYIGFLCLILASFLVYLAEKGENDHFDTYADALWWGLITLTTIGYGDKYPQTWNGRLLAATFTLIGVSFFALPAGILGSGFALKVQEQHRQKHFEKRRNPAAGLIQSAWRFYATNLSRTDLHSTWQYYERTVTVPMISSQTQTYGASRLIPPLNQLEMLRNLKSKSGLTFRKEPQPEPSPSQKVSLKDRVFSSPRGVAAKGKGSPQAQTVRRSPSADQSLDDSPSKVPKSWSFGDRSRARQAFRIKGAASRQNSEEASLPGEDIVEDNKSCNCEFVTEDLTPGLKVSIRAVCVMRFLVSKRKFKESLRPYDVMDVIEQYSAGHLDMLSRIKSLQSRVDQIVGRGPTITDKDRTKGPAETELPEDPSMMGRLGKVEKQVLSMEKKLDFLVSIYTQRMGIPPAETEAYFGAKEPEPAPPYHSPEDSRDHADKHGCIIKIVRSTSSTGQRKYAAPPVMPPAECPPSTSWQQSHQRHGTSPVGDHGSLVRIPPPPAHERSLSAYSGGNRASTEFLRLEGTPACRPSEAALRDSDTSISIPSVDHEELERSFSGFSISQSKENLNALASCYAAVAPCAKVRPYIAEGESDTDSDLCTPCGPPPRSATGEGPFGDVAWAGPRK
Test: KCNQ2 channel inhibition, selectivity assay for KCNQ1 inhibitor project, cell-based (AID 651746);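 further: 0% = buffer control wells and 100% = XE-991 inhibitor control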
Settings: KCNQ2 cells, FluxOR thallium flux fluorescence, at 10 µM; hits give high values
The list shows a part of the results.
outcome measure: inhibition (%)

molecule=CCOC(=O)N1CCN(C(=O)C2CCN(c3ncnc4c3sc3cccc(F)c34)CC2)CC1 outcome_measure=inhibition meas_value=105
molecule=O=C(Nc1cccc(Cl)c1)Nc1ccccc1NS(=O)(=O)c1cccs1 outcome_measure=inhibition meas_value=78.7
molecule=O=C(CNCCC1=CCCCC1)Nc1ccccc1N1CCCCCC1 outcome_measure=inhibition meas_value=114
molecule=Cc1nc2ccccc2cc1OCc1ccc(F)cc1 outcome_measure=inhibition meas_value=99
molecule=CCc1noc(C)c1C(=O)Oc1ccc(N(C)S(=O)(=O)c2ccc(C)c(C)c2)cc1 outcome_measure=inhibition meas_value=95.3
molecule="CCOC(=O)c1c(NC(=O)C(C)Sc2c[nH]c3ccccc23)sc2c1CCC2 (stereo unspecified)" outcome_measure=inhibition meas_value=105

###

Molecular target: Potassium voltage-gated channel subfamily E member 1 (Homo sapiens) + Potassium voltage-gated channel subfamily KQT member 1 (Homo sapiens) (UniProt P15382+P51787)
Assay: KCNQ1/KCNE1 channel inhibition, selectivity assay for KCNQ1 inhibitor project, CHO-K1 cells, thallium flux, FluxOR (AID 652147);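 on inhibition: 0% = buffer only wells and 100% = XE-991 inhibitor control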
Conditions: FluxOR thallium flux fluorescence, at 10 µM; hits give high values
This is one part of the list. The source made the active and inactive calls.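 Rule for the calls: active = mean percent inhibition of duplicate wells above the buffer-only control mean plus 3 SD of those controls; inactive = the rest.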
outcome measure: inhibition

substance_smiles=Cc1cccc(Nc2ccccc2C(=O)NCc2ccco2)c1C meas_value="198% (active)"
substance_smiles=O=C(Nc1ccc(Cl)c(Cl)c1)N1CC=C(c2ccccc2)CC1 meas_value="134% (active)"
substance_smiles=CCOC(=O)C1CCN(c2ncnc3c2oc2ccc(Br)cc23)CC1 meas_value="193% (active)"
substance_smiles=O=C1CCc2cc(S(=O)(=O)N3CCC(C(=O)NCc4ccccc4Cl)CC3)ccc2N1 meas_value=inactive
substance_smiles=Cc1c(C(=O)OC(C)C)sc(NC(=O)c2cccnc2)c1C#N meas_value="48.5% (active)"
substance_smiles=Oc1ccc2ccc3cccc[n+]3c2c1 meas_value=inactive
substance_smiles=Cc1ccccc1OCC(=O)Nc1ccc(N2CCN(C(=O)C(C)C)CC2)c(Cl)c1 meas_value="51% (active)"
substance_smiles=CCNC(=O)c1ccc(OCC(=O)Nc2ccc(F)cc2)c(OC)c1 meas_value="51% (active)"
substance_smiles=Cc1cccc(NC(=S)Nc2ccc(Cl)c(Cl)c2)c1 meas_value=inactive
substance_smiles=CCCN1Cc2cccc(C(=O)NCc3ccccc3)c2C1=O meas_value="80% (active)"
substance_smiles=O=C(NCC(F)(F)F)Nc1nnc(C(F)(F)F)s1 meas_value=inactive

###

Experiment: thallium flux activation in parental CHO cells, counter-screen for KCNQ1 potentiator project (AID 493006);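 on activation: fluorescence ratio of max minus min over baseline after K+ and Tl+ depolarization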
Conditions: parental CHO-K1 cells, FluxOR thallium flux, at 10 µM; hits give high values
Active and inactive are the calls of the source.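 The calls were made as follows: active = duplicate-averaged activation above buffer control mean plus 5 SD of those controls; inactive = the rest.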
outcome measure: activation

compound=N/C(=N\OC(=O)c1cccc2ccccc12)c1ccc(Br)cc1 meas_value=inactive
compound=Cc1cc(C)n(-c2nc(NCCN(C)C)c3c4c(sc3n2)COC(C)(C)C4)n1 meas_value=inactive
compound="CC1CCCCN1C(=S)NC(=O)c1cccs1 (configuration not stated)" meas_value=inactive
compound=CN(C)CCCn1c(=O)n(C2CCCCC2)c(=O)c2c3c(sc21)CCCCC3 meas_value="167% (active)"
compound=O=C(CN1C2=NCCCN2c2ccccc21)c1ccc2c(c1)OCO2 meas_value=inactive
compound=CCCCNC(=S)NNC(=O)c1nn(C)c(C)c1Cl meas_value=inactive
compound=O=C(Nc1ccc(C(=O)O)cc1)/C(=C\c1ccc2c(c1)OCO2)NC(=O)c1ccc(Br)cc1 meas_value=inactive
compound=COc1ccc(C(=O)CSc2nnc(CNC(=O)c3ccc(OC)cc3)n2C)cc1 meas_value=inactive
compound=Cc1cccc(C)c1OCc1cc(C(=O)N(C)Cc2cc(C3CC3)n[nH]2)no1 meas_value=inactive
compound=Cc1c(N2C(=O)/C(=C\c3ccccc3O)SC2=S)c(=O)n(-c2ccccc2)n1C meas_value="398% (active)"
compound="CCC1CCCCN1CCCNC(=O)CSc1nc2nc(C)c(Cc3ccccc3)c(C)n2n1 (configuration not stated)" meas_value=inactive
compound=CCCCC(=O)NNC(=S)NC(=O)C(c1ccccc1)c1ccccc1 meas_value=inactive
compound=O=C(N1CCOCC1)N1CCC(n2nnc3ccccc32)CC1 meas_value=inactive
compound=CC(C)(C)c1cc(C(=O)NNC(=O)c2ccc(Cl)cc2)no1 meas_value="200% (active)"
compound=Cc1ccc(-c2cc(C(=O)NCc3ccccn3)c3ccccc3n2)cc1C meas_value=inactive
compound=Cc1cccc(-n2c(=S)[nH]c3sc4c(c3c2=O)CCc2ccccc2-4)c1 meas_value="240% (active)"
compound="CC12CCC(C/C1=N\\N=C1\\NC(=O)/C(=C\\c3cccc(Br)c3)S1)C2(C)C (configuration not stated)" meas_value=inactive
compound=C#CCNc1cc(-c2ccccc2)nc2ncnn12 meas_value=inactive
compound=COCCNC(=O)CN(C)S(=O)(=O)c1ccc(Br)cc1 meas_value=inactive
compound="COC(=O)C1=NN(C(=O)c2ccc(Cl)cc2)C(O)(c2ccccc2)C1 (configuration not stated)" meas_value="426% (active)"
compound="CC(Sc1nnnn1-c1ccc(O)cc1)C(=O)NC1CCCCC1C (configuration not stated)" meas_value=inactive
compound=Nc1nonc1C(=O)NCCN=Cc1cc(Cc2ccccc2)cc(Br)c1O meas_value=inactive

###

Target: Potassium voltage-gated channel subfamily KQT member 2 (Rattus norvegicus)
Assay: rat KCNQ2 channel potentiation, selectivity assay for KCNQ1 potentiator project, KCNQ2-CHO-K1 cells (AID 493009);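 further: assay conditions were tuned for KCNQ1 rather than KCNQ2 modulators; signal is max minus min fluorescence divided by baseline after thallium stimulus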
Conditions: FluxOR thallium flux fluorescence, at 10 µM, scaled: buffer 0, activator control 100
Active and inactive are the calls of the source.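 Rule for the calls: active = mean duplicate potentiation above the buffer control mean plus 5 SD of buffer wells; inactive = the rest.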
Labels: active, inactive

compound=S=c1nc2ccccc2c2nc(-c3ccccc3)[nH]n12 category=inactive
compound=CCCn1nnnc1SCC(=O)c1ccc2c(c1)OCCO2 category=inactive
compound=CCOC(=O)/C(C)=N/NC(=O)c1ccc([N+](=O)[O-])cc1 category=active
compound=Cc1cc(C)cc(-n2c(C)cc(/C=C3\C(=N)N4N=C(CC(C)C)SC4=NC3=O)c2C)c1 category=inactive
compound="Cc1nc(SC(C)C(=O)c2c(N)n(C)c(=O)n(C)c2=O)c2c(C)c(C)sc2n1 (stereo not drawn)" category=active
compound=Clc1ccc(Nc2ccc(Cl)nn2)cc1 category=active
compound=CCCn1c(=S)[nH]c2sc3c(c2c1=O)CCCC3 category=active
compound=O=C(Nc1ccc(C(=O)O)cc1)/C(=C\c1ccc2c(c1)OCO2)NC(=O)c1ccc(Br)cc1 category=inactive
compound=Cc1ccc2nc(N3CCN(Cc4ccc(F)cc4)C3=O)c(C)cc2c1 category=inactive
compound=COc1ccc(CCNC(=O)c2c(C)nc3ccccn23)cc1 category=inactive
compound=O=c1oc2ccccc2c(Cl)c1CN1CCCCC1 category=inactive
compound=O=c1c2ccccc2nc(-c2ccc(Cl)c(Cl)c2)n1O category=active
compound=Cc1sc(-n2c(C)cc(/C=N/n3cnnc3)c2C)c(C#N)c1C category=inactive
compound=COCCCn1c(=S)[nH]c2sc3c(c2c1=O)CCCC3 category=active
compound=Oc1c(Br)cc(Br)cc1C=Nc1ccc2c(c1)OCO2 category=inactive
compound=O=C(Nc1nc(=O)c2ccccc2s1)c1ccc(F)cc1 category=active
compound="CC(=O)Nc1cc(NC(C)=O)cc(C(=O)OC(C)C(=O)Nc2ccc(S(=O)(=O)N3CCCC3)cc2)c1 (stereo not drawn)" category=active
compound="COc1ccc(NC(=O)CC2C(=O)N(c3ccc(Cl)cc3)C(=S)N2NC(=O)c2cccc(F)c2)cc1 (stereo not drawn)" category=inactive
compound="CC1CC(=S)Nc2ccccc2N1C(=O)Nc1ccccc1 (stereo not drawn)" category=inactive
compound=CCc1ccc(NC(=O)C(=O)NNC(=O)COc2cccc(OC)c2)cc1 category=active
compound="CCC1CCc2c(sc(NC(=O)C3CC=CCC3C(=O)O)c2C#N)C1 (stereo not drawn)" category=inactive
compound=CCOC(=O)c1c(NC(=O)CN2CCN(C(=O)c3ccco3)CC2)sc2c1CCCC2 category=inactive
compound=CC1CCN(C(=S)NC(=O)c2ccc(C(C)(C)C)cc2)CC1 category=active

src = PubChem BioAssay
